Reported Kd values for a set of binders
# assayed system: T1, monkey Fc-PD-1 protein (monkey, UniProt Q15116 25-170 (human entry))
# T1 construct: not shown: Fc part not described
# T1 chain: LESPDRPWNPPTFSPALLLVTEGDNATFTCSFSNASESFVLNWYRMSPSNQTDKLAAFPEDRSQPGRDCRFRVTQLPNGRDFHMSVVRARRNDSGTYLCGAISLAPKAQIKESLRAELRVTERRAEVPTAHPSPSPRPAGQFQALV
# test details: Biacore, Fab, monkey Fc-PD-1
Numeric only. Scale: nM

Use the examples below as a reference point.
>  <binder>
A35783 (Fab, V domains shown, humanized Fab clone of 135C12; also called humanized antibody A35783) VH: EVQLVQSGAEVKKPGESLKISCKGSGYSFTNFYIHWVRQARGQRLEWIGSIYPNYGDTAYNQKFKDRFVFSLDTSVSTAYLQISSLKAEDTAVYYCARGYSYAMDYWGQGTTVTVSS VL: DIQMTQSPSSLSASVGDRVTITCSASQGISGDLNWYQQKPGKTPKLLIYHTSSLHSGVPSRFSGSGSGTDFTLTISSLQPEDFATYYCQYYSKDLLTFGGGTKLEIK

>  <endpoint unit>
nM

>  <Kd>
1.9

$$$$
>  <binder>
A35775 (Fab, V domains shown, humanized Fab clone of 135C12; also called humanized antibody A35775) VH: EVQLVQSGAEVKKPGESLKISCKGSGYSFTNFYIHWVRQAPGQRLEWMGSIYPNYGDTAYNQKFKDRFVFSLDTSVSTAYLQISSLKAEDTAVYYCARGYSYAMDYWGQGTTVTVSS VL: DIQMTQSPSSVSASVGDRVTITCSASQGISGDLNWYQQKPGQAPRLLIYHTSSLHSGVPSRFSGSGSGTDFTLTISSLQPEDFATYYCQYYSKDLLTFGGGTKLEIK

>  <endpoint unit>
nM

>  <Kd>
5.73

$$$$

Next, consider the following binder.
The binder listed as A35789 (Fab, V domains shown, humanized Fab clone of 135C12; also called humanized antibody A35789) VH: EVQLVQSGAEVKKPGESLKISCKGSGYSFTNFYIHWVRQMPGKGLEWMGSIYPNYGDTAYNQKFKDRVTITADKSTSTAYMELSSLRSEDTAVYYCARGYSYAMDYWGQGTTVTVSS VL: DIQMTQSPSSVSASVGDRVTITCSASQGISGDLNWYQQKPGQAPRLLIYHTSSLHSGIPARFSGSGSGTDFTLTISRLEPEDFAVYYCQYYSKDLLTFGGGTKLEIK shows Kd equal to 6.19
